- Measured On: Hck (UniProt P08631)
- Sequence (P08631 whole entry, looked up): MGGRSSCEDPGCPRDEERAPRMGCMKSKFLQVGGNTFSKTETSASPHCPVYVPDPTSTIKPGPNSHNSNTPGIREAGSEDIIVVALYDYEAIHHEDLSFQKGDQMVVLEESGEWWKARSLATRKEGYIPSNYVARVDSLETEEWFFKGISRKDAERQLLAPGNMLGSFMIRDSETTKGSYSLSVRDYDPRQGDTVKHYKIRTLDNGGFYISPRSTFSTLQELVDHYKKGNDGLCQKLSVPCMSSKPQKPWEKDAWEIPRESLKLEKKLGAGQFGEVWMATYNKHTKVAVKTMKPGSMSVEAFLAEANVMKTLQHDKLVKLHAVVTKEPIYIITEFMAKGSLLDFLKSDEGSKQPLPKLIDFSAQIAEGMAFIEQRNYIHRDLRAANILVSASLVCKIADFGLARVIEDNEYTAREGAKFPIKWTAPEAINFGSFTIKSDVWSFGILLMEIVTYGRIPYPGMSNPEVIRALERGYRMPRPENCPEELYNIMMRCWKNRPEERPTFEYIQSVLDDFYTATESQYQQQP
- Protocol: phosphorylation enrichment, bacterial display (enrichment ratio); higher = better substrate or ligand; peptides without Tyr show the background;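 also: 11-residue human phosphosite peptides and single-mutation variants displayed on the E. coli surface, counted by deep sequencing, each peptide's frequency after selection divided by its frequency in the unselected input library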;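 also: frequency after pTyr selection over input frequency; kinase dosed for 20-30% of maximal phosphorylation in three min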
// phosphorylation enrichment lookup, one value per entry

- Biosequence: "PTDGVYVMPTV [MYO7A_Y1668_S1666G]"
  Measured On: "Hck (UniProt P08631)"
  phosphorylation enrichment: 6.35
- Biosequence: "DHAGMYGLGDR [MAPT_Y18_T17M]"
  Measured On: "Hck (UniProt P08631)"
  phosphorylation enrichment: 0.471
- Biosequence: "SSMIDYNTLEK [MYOC_Y479_P481T]"
  Measured On: "Hck (UniProt P08631)"
  phosphorylation enrichment: 0.482
- Biosequence: "FQKNSYSEELR [LMNA_Y211_I210S]"
  Measured On: "Hck (UniProt P08631)"
  phosphorylation enrichment: 0.319
- Biosequence: "KKLAEYGPQGR [CLCA1_Y147]"
  Measured On: "Hck (UniProt P08631)"
  phosphorylation enrichment: 0.36
- Biosequence: "EFKKHYGFSLF [ANXA3_Y295_YF]"
  Measured On: "Hck (UniProt P08631)"
  phosphorylation enrichment: 0.507
- Biosequence: "IHSGIYFKPES [L2HGDH_Y102_YF]"
  Measured On: "Hck (UniProt P08631)"
  phosphorylation enrichment: 2.14
- Biosequence: "TRDTDYQMTKR [ADA_Y308_L304R]"
  Measured On: "Hck (UniProt P08631)"
  phosphorylation enrichment: 0.373
- Biosequence: "MDDKEYFSVHN [MET_Y1234_Y1230D_YF]"
  Measured On: "Hck (UniProt P08631)"
  phosphorylation enrichment: 0.452
- Biosequence: "DYYDLYGGEKL [PTPN11_Y66_F71L]"
  Measured On: "Hck (UniProt P08631)"
  phosphorylation enrichment: 5.89
- Biosequence: "NFATLHLKIFH [PDE6B_Y219_Y219H_YF]"
  Measured On: "Hck (UniProt P08631)"
  phosphorylation enrichment: 0.492
- Biosequence: "GINDDHGQLKN [NBN_Y679_Y679H]"
  Measured On: "Hck (UniProt P08631)"
  phosphorylation enrichment: 0.484
- Biosequence: "RAIELYNDKEK [OTULIN_Y244]"
  Measured On: "Hck (UniProt P08631)"
  phosphorylation enrichment: 1.08
- Biosequence: "KAIMTYVPSFF [ACTN4_Y260_S262P_YF]"
  Measured On: "Hck (UniProt P08631)"
  phosphorylation enrichment: 0.497
- Biosequence: "PEVRRYVLPLN [RPE65_Y368]"
  Measured On: "Hck (UniProt P08631)"
  phosphorylation enrichment: 0.916
- Biosequence: "KQRSDYARELE [MYH3_Y1140]"
  Measured On: "Hck (UniProt P08631)"
  phosphorylation enrichment: 0.393
- Biosequence: "NLDRFYQQVTK [SEC16A_Y1041]"
  Measured On: "Hck (UniProt P08631)"
  phosphorylation enrichment: 0.599
- Biosequence: "SEPDLYYDPRG [PKP1_Y160_C161Y]"
  Measured On: "Hck (UniProt P08631)"
  phosphorylation enrichment: 8.75
- Biosequence: "DAKAIYDFTDT [PDK1_Y136]"
  Measured On: "Hck (UniProt P08631)"
  phosphorylation enrichment: 3.18
- Biosequence: "CKLFQYFLDHL [ATRX_Y1849_YF]"
  Measured On: "Hck (UniProt P08631)"
  phosphorylation enrichment: 0.585
- Biosequence: "NVGGKYSYLKV [GRM3_Y478]"
  Measured On: "Hck (UniProt P08631)"
  phosphorylation enrichment: 0.515
- Biosequence: "LITTPYIGFLG [KCNQ1_Y267_L266P]"
  Measured On: "Hck (UniProt P08631)"
  phosphorylation enrichment: 0.473
- Biosequence: "KTDVRYRSLGG [DYSF_Y1858_H1857R]"
  Measured On: "Hck (UniProt P08631)"
  phosphorylation enrichment: 0.314
- Biosequence: "ALAAPYVLYPS [CEFIP_Y1332_G1337S]"
  Measured On: "Hck (UniProt P08631)"
  phosphorylation enrichment: 0.628
- Biosequence: "EDGCIYPGTIA [SMN1_Y109_A111G]"
  Measured On: "Hck (UniProt P08631)"
  phosphorylation enrichment: 0.552
- Biosequence: "IGERTYGQVYK [CDK13_Y716_G714R]"
  Measured On: "Hck (UniProt P08631)"
  phosphorylation enrichment: 3.64
- Biosequence: "ATDLAYYLVRE [ASL_Y375_K380E]"
  Measured On: "Hck (UniProt P08631)"
  phosphorylation enrichment: 1.01
- Biosequence: "EQFELYCEMGS [CBL_Y371_YF]"
  Measured On: "Hck (UniProt P08631)"
  phosphorylation enrichment: 2.27
- Biosequence: "WKEREYEVVRD [CPS1_Y634_I632R]"
  Measured On: "Hck (UniProt P08631)"
  phosphorylation enrichment: 0.586
